molecular target: T1, shFcRn (soluble human FcRn) (human, UniProt P55899 24-297; P61769 21-119); test: SPR, shFcRn immobilized on chip, antibody as analyte, pH 7.4;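 note: kinetics fitted with a 1:1 Langmuir model, association 200 s and dissociation 600 s in PBST, double-referenced against buffer-only and interspot signals, values averaged over repeated runs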
T1 construct: extracellular domain; Printed only as 'soluble human FcRn'; also called hFcRn (immobilized on a chip)
T1 sequence (P55899 24-297 limits assumed, chain 1 of 2): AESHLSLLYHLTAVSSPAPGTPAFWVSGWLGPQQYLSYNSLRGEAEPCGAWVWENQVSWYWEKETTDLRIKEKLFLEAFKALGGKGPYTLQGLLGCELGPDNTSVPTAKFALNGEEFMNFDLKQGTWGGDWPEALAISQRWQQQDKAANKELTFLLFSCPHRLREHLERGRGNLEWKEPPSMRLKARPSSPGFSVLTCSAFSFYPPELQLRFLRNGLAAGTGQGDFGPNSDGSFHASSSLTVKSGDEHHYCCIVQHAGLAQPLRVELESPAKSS
T1 sequence (P61769 21-119 limits assumed, chain 2 of 2): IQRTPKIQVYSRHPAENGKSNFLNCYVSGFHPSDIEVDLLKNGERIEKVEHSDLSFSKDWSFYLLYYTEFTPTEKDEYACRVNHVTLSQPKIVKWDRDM
Each entry below carries its reported kon.
Lab book: enter the figure in M⁻¹ s⁻¹, no units written.

Sample records with kon:
Incoming: Quick one: kon of HL161AN variant No. 10 (LC:N25S, HC:C32Y Q82T) (antibody, human IgG1, V domains shown, Variable domains only) VL: SYVLTQPPSVSVAPGQTARITCGGSNIGSTSVHWYQQKPGQAPVLVVHDDSDRPSGIPERFSGSNSGNTATLTISRVEAGDEADYYCQVRDSSSDHVIFGGGTKLTVLGQPKAAPSVTL VH: EVQLLESGGGLVQPGGSLRLSCAASEFTFGSYVMTWVRQAPGKGLEWVSVISGSGGSTYYADSVKGRFTISRDNSKNTLYLTMNSLRAEDTAVYYCAKTPWWLRSPFFDYWGQGTLVTVSS ?
Outgoing: 1.93e+06

Incoming: Ok, now HL161AN variant No. 14 (LC:N25Q, HC:Q82S) (antibody, human IgG1, V domains shown, Variable domains only) VL: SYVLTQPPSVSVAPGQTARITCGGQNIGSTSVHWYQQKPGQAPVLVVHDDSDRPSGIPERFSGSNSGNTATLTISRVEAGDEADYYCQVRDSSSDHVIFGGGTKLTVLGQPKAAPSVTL VH: EVQLLESGGGLVQPGGSLRLSCAASEFTFGSCVMTWVRQAPGKGLEWVSVISGSGGSTYYADSVKGRFTISRDNSKNTLYLSMNSLRAEDTAVYYCAKTPWWLRSPFFDYWGQGTLVTVSS
Outgoing: 1.95e+06

Incoming: Same again, this time with HL161AN variant No. 20 (LC:N25Q, HC:C32Y Q82S) (antibody, human IgG1, V domains shown, Variable domains only) VL: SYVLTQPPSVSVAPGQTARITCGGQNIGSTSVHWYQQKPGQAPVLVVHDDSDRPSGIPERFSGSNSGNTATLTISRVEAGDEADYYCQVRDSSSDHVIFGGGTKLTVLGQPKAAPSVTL VH: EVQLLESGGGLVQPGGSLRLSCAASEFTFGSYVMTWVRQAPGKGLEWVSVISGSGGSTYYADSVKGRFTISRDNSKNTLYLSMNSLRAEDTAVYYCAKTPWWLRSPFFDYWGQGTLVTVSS
Outgoing: 1.98e+06

As a next step, examine the binder that follows.
Incoming: Quick one: kon of HL161AN variant No. 12 (LC:N25Q, HC:C32S) (antibody, V domains shown, also called HL161ANQ; #12 (HL161ANQ)) VL: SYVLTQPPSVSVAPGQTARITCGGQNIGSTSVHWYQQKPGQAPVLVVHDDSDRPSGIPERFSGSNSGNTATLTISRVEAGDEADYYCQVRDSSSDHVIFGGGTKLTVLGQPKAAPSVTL VH: EVQLLESGGGLVQPGGSLRLSCAASEFTFGSSVMTWVRQAPGKGLEWVSVISGSGGSTYYADSVKGRFTISRDNSKNTLYLQMNSLRAEDTAVYYCAKTPWWLRSPFFDYWGQGTLVTVSS ?
Outgoing: 2.38e+06
